Just for reference, the supplement of paper PMC10567573 is where these values come from.

B1: TRIM63 (parent)
chain: QRITQEQEKKLSFIEALIQQYQEQ

variants of: B1; assay: protein stability index of a GFP-peptide fusion (GPS, HEK-293T) (PSI 1-6); higher = more stable; conditions: c terminus: a fixed tail appended;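 further: lentivirally expressed fusions sorted by FACS into six bins by GFP to DsRed ratio, PSI derived from sequencing read proportions per bin multiplied by bin number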
parameterMeasured: protein stability index
Returns: the value as a bare number; no unit string appended.

Entry I18F has what protein stability index?
2.74

Entry I18Y has what protein stability index?
3.29

Entry I14E has what protein stability index?
2.77

Entry Y21C has what protein stability index?
1.75

Entry E6T has what protein stability index?
1.7

Entry Q5A has what protein stability index?
2.5

Entry Q20I has what protein stability index?
1.67

Entry I18N has what protein stability index?
3.57

Entry F13Q has what protein stability index?
4.33

Entry Q22R has what protein stability index?
2.42

Entry I3G has what protein stability index?
2.31
